# assay.protocol: Displacement of [3H]ifenprodil from GluN1A/GluN2B (unknown origin) expressed in mouse L(tk-) cell membranes after 120 mins by solid scintillation counting method
# Parameters: species or system Homo sapiens
property: pKi
Friendly reminder that pKi comes from taking -log10 of the concentration in mol/L.

Examples with their reported pKi follow.
- compound: "CN(CCCc1ccccc1)C1CCc2ccccc2C(O)C1 (mixture of isomers)"
  pKi: 7.31
- compound: "OC1Cc2ccccc2CCC1NCCCCc1ccccc1 (mixture of isomers)"
  pKi: 6.57
- compound: "COc1ccc2c(c1)CCC(NCCCc1ccccc1)CC2 (stereo not given)"
  pKi: 8.00
- compound: "C[C@@H](CN1CCC(Cc2ccccc2)CC1)[C@@H](O)c1ccc(O)cc1"
  pKi: 6.77
- compound: "OC1Cc2ccccc2CCC1NCCCc1ccccc1 (mixture of isomers)"
  pKi: 6.42

[ask] I have this compound here, OC1c2ccccc2CCC(NCCCc2ccccc2)C1O (mixture of isomers) , and I need its recorded pKi.
[reply] 5.70

[ask] What value of measured pKi is listed for CN(CCCCc1ccccc1)C1CCc2ccccc2C(O)C1 (mixture of isomers) ?
[reply] 7.19

[ask] Look up pKi for this compound: OC1CC(NCCCc2ccccc2)CCc2ccccc21 (mixture of isomers)
[reply] 7.11

[ask] // query pKi value for entry c1ccc(CCCNC2CCc3ccccc3CC2)cc1
[reply] 7.80

[ask] // lookup pKi for CC(C(O)c1ccc(O)cc1)N1CCC(Cc2ccccc2)CC1 (stereo not given)
[reply] 8.00

---

# assay.protocol: in vitro
# assay.context: C57BL/6, mouse, liver microsomes
# Description: Metabolic stability in C57BL/6 mouse liver microsomes assessed as parent compound remaining at 25 uM incubated for 90 mins in presence of NADPH by LC-qTOF/MS analysis
property: remaining at 1.5 h, 25 µM (%)
Numeric only. Scale: %

[ask] Bench note: what remaining at 1.5 h, 25 µM did CN(CCCc1ccccc1)C1CCc2ccccc2C(O)C1 (mixture of isomers) show?
[reply] 17

---

# assayed.target: Sigma intracellular receptor 2 (Rattus norvegicus, UniProt Q5U3Y7)
# Sequence (Q5U3Y7 whole entry): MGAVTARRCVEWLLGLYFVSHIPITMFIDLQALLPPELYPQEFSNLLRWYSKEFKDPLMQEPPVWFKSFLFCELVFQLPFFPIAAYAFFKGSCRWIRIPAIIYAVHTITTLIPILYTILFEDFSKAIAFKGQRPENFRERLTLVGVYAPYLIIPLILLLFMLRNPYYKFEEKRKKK
# assay.protocol: Displacement of [3H]di-o-tolylguanidine from sigma2 receptor in rat liver membranes measured after 120 mins by solid scintillation counting method
We begin with a simple list: items and their reported pKi.
// returns pKi (minus log10 of molar concentration), number only

Reference set, count: 4
- compound: "CN(CCCc1ccccc1)C1CCc2ccccc2C(O)C1 (mixture of isomers)"
  pKi: 7.46
- compound: "OC1Cc2ccccc2CCC1NCCCc1ccccc1 (mixture of isomers)"
  pKi: 7.00
- compound: "OC1Cc2ccccc2CCC1NCCCCc1ccccc1 (mixture of isomers)"
  pKi: 7.00
- compound: "CN(CCCCc1ccccc1)C1CCc2ccccc2C(O)C1 (mixture of isomers)"
  pKi: 7.18

[ask] Which pKi value is on record for OC1CC(NCCCc2ccccc2)CCc2ccccc21 (mixture of isomers) ?
[reply] 7.55

[ask] pKi for OC1c2ccccc2CCC(NCCCc2ccccc2)C1O (mixture of isomers) ?
[reply] 6.20

[ask] I would be grateful if you could share the reported pKi for OC1CC(NCCCCc2ccccc2)CCc2ccccc21 (mixture of isomers) .
[reply] 7.00

---

# assay.protocol: Displacement of [3H]ifenprodil from GluN1A/GluN2B (unknown origin) expressed in mouse L(tk-) cell membranes after 120 mins by solid scintillation counting method
# Parameters: species or system Homo sapiens
property: pKi
pKi here is simply -log10 of the concentration when that concentration is written in mol/L.

Please review the entries below; each comes with its answer.
- molecule: "Oc1ccc2c(c1)CCC(NCCCc1ccccc1)CC2 (centres undefined)"
  pKi: 7.55
- molecule: "COc1ccc2c(c1)CC[C@@H](NCCCc1ccccc1)C[C@H]2O (racemic)"
  pKi: 7.80
- molecule: "OC(CN1CCC(Cc2ccc(F)cc2)CC1)c1ccc(Cl)cc1 (centres undefined) [ELIPRODIL]"
  pKi: 7.89

[ask] Query: pKi; subject: Oc1ccc2c(c1)CCC(NCCCCc1ccccc1)CC2 (centres undefined)
[reply] 7.68
